Would you mind telling me the reported cytotoxicity at 10 µM of each entry?
assay: Toxicity liver stage against HepG2, at 10uM; assay type: cell-based; design: test concentration 10 uM, cell line HepG2-A16-CD81EGFP; settings: human, HepG2-A16-CD81EGFP cells; read-out: INHIBITION
Answers are plain numbers, in %.

Sample answers from the record:
-- ask Give the reported value of cytotoxicity at 10 µM for this record: Brc1csc(CNCc2nnc3n2CCC3)c1
-- reply 5.63

-- ask Give the reported value of cytotoxicity at 10 µM for this record: Cc1cccc(Nc2ccc(C3CCN(Cc4ncc[nH]4)CC3)nc2)n1
-- reply -2.83

-- ask Give the reported value of cytotoxicity at 10 µM for this record: Cc1ccc(C#N)c(N2CCC3(CCC(=O)N(CC(N)=O)C3)CC2)n1
-- reply 0.845

-- ask Give the reported value of cytotoxicity at 10 µM for this record: CC(C)Oc1cccc(C(=O)C2CCCN(C(=O)c3ccccn3)C2)c1 (centres undefined)
-- reply -7.67

-- ask Give the reported value of cytotoxicity at 10 µM for this record: CC(C)n1ccnc1CN1CCCN(C(=O)CN(C)C2CC2)CC1
-- reply -3.96

// input: 8 compounds below; output: cytotoxicity at 10 µM for each
1. O=C(NCc1cccs1)[C@H]1CC[C@@H]2[C@@H](CCN2c2ncccn2)O1
2. Cc1ccc2nc(CN3CCN(C4CCCC4)C(=O)C3)cc(O)c2c1
3. COc1ccc(-n2ccc(C(=O)NCCN3CCCCC3)n2)cc1
4. Cc1nccn1CCCN1CCCC(c2nccn2CC2CCC2)C1 (centres undefined)
5. COc1ccc2c(c1)sc(=NC(=O)CSCC(=O)Nc1nccs1)n2C
6. Cc1cc(C(=O)N2CCc3nc(N4CCOCC4)nc(C)c3C2)c(C)o1
7. COCC(=O)N1CCCC(c2csc(NC(C)=O)n2)C1 (centres undefined)
8. COC(=O)[C@]12CNC[C@H]1CN(Cc1nc(C)c[nH]1)C2

-- reply
1: -24.2; 2: -0.803; 3: -2.87; 4: -13.7; 5: -8.36; 6: -110; 7: -17.2; 8: 6.01

// input: 2 compounds below; output: cytotoxicity at 10 µM for each
1. CCOCCCNC(=O)CN(c1ccc(F)c(F)c1)S(C)(=O)=O
2. COc1cc(C2SCC(=O)Nc3ccsc32)cc(OC)c1O (centres undefined)

-- reply
[9.96, 54.7]

// input: 5 compounds below; output: cytotoxicity at 10 µM for each
1. COc1ccc(OC2CCN(C(=O)C3CCCN(C)C3)CC2)cc1 (centres undefined)
2. Clc1cc(N2CCC(N3CCCC3)CC2)nc2[nH]ccc12
3. CCN(Cc1ccoc1)C(=O)C1CCN(C(=O)OC(C)(C)C)C1 (centres undefined)
4. COc1cc(-c2cc(=O)[nH]cn2)cc(OC)c1OC
5. CC(=O)N1CCCCCC1C1CCN(Cc2nnc(C(C)(C)C)o2)CC1 (centres undefined)

-- reply
[-59.6, -0.77, -15.5, -12.5, -42.3]

###

assay: Toxicity liver stage against HepG2, at 10uM; type: cell-based; parameters: test concentration 10 uM, cell line HepG2-A16-CD81EGFP; details: human, HepG2-A16-CD81EGFP cells; read-out: INHIBITION
MEASURED PARAMETER: cytotoxicity at 10 µM (%)
Give bare numbers, in %.

Sample answers from the record:
-- ask Give the reported value of cytotoxicity at 10 µM for this record: O=C(CSCC1CC1)N1CCc2[nH]nc(COc3ccccc3)c2C1
-- reply -7.01

-- ask Give the reported value of cytotoxicity at 10 µM for this record: Cc1cc(=O)n(CC(=O)Nc2ccc(C(N)=O)cc2)nc1C
-- reply -10.9

-- ask Give the reported value of cytotoxicity at 10 µM for this record: CN1CCCN(C(=O)c2nnn(-c3ccc(C(F)(F)F)cc3)n2)CC1
-- reply -7.37

-- ask Give the reported value of cytotoxicity at 10 µM for this record: CCN(C(=O)NCCc1cccc(F)c1F)C(C)CS(C)(=O)=O (stereo unspecified)
-- reply 11.9

-- ask Give the reported value of cytotoxicity at 10 µM for this record: CN(Cc1ccc(-n2cccn2)cc1)Cc1ncc[nH]1
-- reply 1.79

// input: 3 compounds below; output: cytotoxicity at 10 µM for each
1. Cc1ccccc1C(C)(C)CNC(=O)CCSc1nnnn1C
2. Cc1cccc(CN2C[C@@H]3COC[C@]3(CNC(=O)C3CCC3)C2)c1
3. Cc1ccc(OCC(O)CN2CCC(Cn3cc(C)cn3)CC2)cc1 (stereo unspecified)

-- reply
1. 6.51
2. -112
3. -3.17

// input: 3 compounds below; output: cytotoxicity at 10 µM for each
1. O=C(NS(=O)(=O)c1ccc(Cl)cc1F)c1cccc2c1OCCO2
2. Cc1nc(C2CCCN2C(=O)c2ccc(F)cc2)ncc1C(N)=O (stereo unspecified)
3. Cn1ncc2c1C(COCC1CC1)CN(C(=O)Cc1ccsc1)C2 (stereo unspecified)

-- reply
[-5.33, -7.62, 10.1]

###

Would you mind telling me the reported cytotoxicity at 10 µM of each entry?
test: Toxicity liver stage against HepG2, at 10uM; assay type: cell-based; design: test concentration 10 uM, cell line HepG2-A16-CD81EGFP; conditions: human, HepG2-A16-CD81EGFP cells; read-out: INHIBITION
One number for each entry, in %.

// input: 2 compounds below; output: cytotoxicity at 10 µM for each
1. COc1cccc(OC2CN(C(=O)c3ccnc(OC)c3)C2)c1
2. Cc1cccc(-c2nc(CN(Cc3cccs3)CC3CCCO3)no2)c1 (stereo unspecified)

-- reply
[-6.52, -3.01]

// input: 8 compounds below; output: cytotoxicity at 10 µM for each
1. Cc1ccc([C@@H]2CN(C(=O)c3cccnn3)C[C@H]2NC(=O)C2CC2)cc1
2. Cc1ccc(=O)n(CC2(O)CCN(Cc3cnn(C)c3)CC2)n1
3. COCCOc1ccc(NC(=O)C2CCCN(C(N)=O)C2)cn1 (stereo unspecified)
4. COc1cccc(C=CCCN2CCC(C(=O)N3CCCC3)CC2)c1
5. O=C(NC[C@@H]1CCCO1)c1cc(Br)cnc1N1CCCCC1
6. CCOCCn1c(=O)[nH]c2cc(C(=O)N(C)Cc3cnn(C)c3)ccc21
7. CN1CCCC(N(C)C(=O)c2ccc(NC(=O)c3ccc[nH]3)cc2)C1 (stereo unspecified)
8. COc1ccc2c(c1)OCC(Cc1ccc(C)nc1N)C2 (stereo unspecified)

-- reply
1: -17.7; 2: 3.12; 3: -8.9; 4: 7.09; 5: -1.69; 6: 2.81; 7: -11.4; 8: -2.57

-- ask Give the reported value of cytotoxicity at 10 µM for this record: CCOC[C@@H]1CC[C@H]2[C@H](CCN2C(=O)c2ccncc2F)O1
-- reply -2.86

###

test: Toxicity liver stage against HepG2, at 10uM; type: cell-based; set-up: test concentration 10 uM, cell line HepG2-A16-CD81EGFP; settings: human, HepG2-A16-CD81EGFP cells; read-out: INHIBITION
Would you mind telling me the reported cytotoxicity at 10 µM of each entry?
Numbers only, in %.

Sample answers from the record:
-- ask Give the reported value of cytotoxicity at 10 µM for this record: COCCCNS(=O)(=O)c1ccc(N2CCCCS2(=O)=O)cc1
-- reply 0.308

-- ask Give the reported value of cytotoxicity at 10 µM for this record: Cc1ccoc1C(=O)N1CC[C@H]2OCC[C@@]2(COCc2ccncc2)C1
-- reply 5.71

-- ask Give the reported value of cytotoxicity at 10 µM for this record: CN1CC(=O)N(c2cccc(F)c2)CC12CCN(CCO)C2 (stereo not given)
-- reply -82.1

-- ask Give the reported value of cytotoxicity at 10 µM for this record: CC1CCN(CCCNS(=O)(=O)c2cccc(F)c2)CC1
-- reply -12.3

-- ask Give the reported value of cytotoxicity at 10 µM for this record: CCN(CC)c1nc(Nc2cccc(C(=O)O)c2)nc2ccccc12
-- reply 12

-- ask Give the reported value of cytotoxicity at 10 µM for this record: CN(Cc1ccsc1)C(=O)c1ccc(F)c(NS(C)(=O)=O)c1
-- reply -5.7

-- ask Give the reported value of cytotoxicity at 10 µM for this record: Cc1cc(NC(=O)CN2CCc3cncnc3C2)no1
-- reply -11.5

-- ask Give the reported value of cytotoxicity at 10 µM for this record: CC(CO)NC(=O)c1ccc(NCc2ccccc2)cc1 (stereo not given)
-- reply -6.63

// input: 3 molecules below; output: cytotoxicity at 10 µM for each
1. Cc1cnc(N2CC[C@@H]3O[C@@H](COCC(=O)N(C)C)CC[C@@H]32)nc1
2. COc1cc(C)nc(N2CCN(C(=O)CCc3nccs3)CC2)n1
3. O=C1CSC(c2ccsc2)c2sccc2N1 (stereo not given)

-- reply
[0.0508, -15.8, 2.19]

// input: 8 molecules below; output: cytotoxicity at 10 µM for each
1. NCCC(Cc1ccccc1)c1ccco1 (stereo not given)
2. c1cc(C2CCN(c3ncnc4c3CCNCC4)CC2)ccn1
3. CCN1CCN(C2(C(=O)NC3CCCC3)Cc3ccccc3C2)CC1
4. CCCc1nc(CN(CC)Cc2ccc(S(C)(=O)=O)cc2)no1
5. CN(C)CC(=O)N1CC2(CCN(S(=O)(=O)c3ccccc3)C2)C1
6. Clc1ccc(-c2ccc(C3CNCCO3)nc2)cc1 (stereo not given)
7. CCOc1nc2cnccc2n(CC(=O)NCCc2ccccc2)c1=O
8. CC1CCN(c2ccc3c(-c4ncc(C(=O)O)s4)noc3c2)CC1

-- reply
1. 0.45
2. 8.33
3. -13.8
4. -16.9
5. -6.34
6. -5.86
7. -6.29
8. 2.13

// input: 6 molecules below; output: cytotoxicity at 10 µM for each
1. COc1c(CNC(c2ccc(F)cc2)C(C)(C)C)c(C)nn1C (stereo not given)
2. COCCOc1ccnc(-c2noc([C@@H]3CCCN3C)n2)c1
3. c1cncc(NCCNC2CCSCC2)c1
4. CC(C)c1nccn1-c1cncc(C2CCCN2Cc2cccnc2)n1 (stereo not given)
5. COc1ncnc2c1CCN(Cc1cccs1)CC2
6. O=C(O)CC(NC(=O)c1cc(Br)c[nH]1)c1ccccc1 (stereo not given)

-- reply
0.0161
-7.18
-0.307
-6.27
8.55
1.22
